Experiment: chemical genetic growth profiling, strain panel (AID 1159580);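 further: tested at 20 µM; growth read once vehicle control cultures reached saturation at 30 °C; 1 = growth at the plate median or of vehicle wells; lower values mean less growth of the strain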
Settings: S. cerevisiae deletion strains, growth OD, locus YPL241C, strain CIN2, hits give low values
Hit rate of the full screen: of about 5,500 compounds, about 2,000 (36%) were called active. Not shown: some 18% with an inconclusive outcome. Some of the results follow.
Entries and their normalized growth values follow.
attribute-measured: normalized growth

compound: CC(=O)Oc1cc(C)c2c(c1C(OC(C)=O)OC(C)=O)Oc1c(c(C)c(OC(C)=O)c3c1C(OC(C)=O)OC3=O)OC2=O (stereo not drawn)
attribute-measured: normalized growth
readout-value: 0.989
//
compound: CN1CCc2cc(O)cc3c2[C@H]1Cc1ccc(O)c(O)c1-3
attribute-measured: normalized growth
readout-value: 0.876
//
compound: COc1ccccc1N1CCN(Cc2ccc(F)cc2)CC1
attribute-measured: normalized growth
readout-value: 0.998
//
compound: CCCN(CCC)CCc1cccc2c1CC(=O)N2
attribute-measured: normalized growth
readout-value: 1
//
compound: CC(C)(C)OC(=O)N1CCN(Cc2ccccc2)CC1
attribute-measured: normalized growth
readout-value: 1.01
//
compound: O=c1ccn([C@@H]2O[C@H](COP(=O)(O)OP(=O)(O)OP(=O)(O)O)[C@@H](O)[C@H]2O)c(=O)[nH]1
attribute-measured: normalized growth
readout-value: 0.998
//
compound: CCCN(CCC)C(=O)C(CCC(=O)O)NC(=O)c1ccccc1 (stereo not drawn)
attribute-measured: normalized growth
readout-value: 1
//
compound: N/C(=N\OC(=O)c1ccno1)c1ccc(C(F)(F)F)cc1
attribute-measured: normalized growth
readout-value: 1.03
//
compound: CCn1cc(C(=O)O)c(=O)c2ccc(Cc3ccccc3)nc21
attribute-measured: normalized growth
readout-value: 1.01
//
compound: [Li+]
attribute-measured: normalized growth
readout-value: 1.01
//
compound: NC(=O)c1cnccn1
attribute-measured: normalized growth
readout-value: 1.01
//
compound: O=C(O)CCC(=O)c1ccc(-c2ccccc2)cc1
attribute-measured: normalized growth
readout-value: 0.996
//
compound: CC[C@@]1(C2O[C@@H](C3O[C@@](O)(CC)[C@H](C)C[C@@H]3C)C[C@@H]2C)CC[C@H]([C@]2(C)CCC3(C[C@H](O)[C@@H](C)[C@@H]([C@H](C)[C@@H](OC)[C@H](C)C(=O)O)O3)O2)O1 (stereo partly drawn)
attribute-measured: normalized growth
readout-value: 1.01
//
compound: Cc1cccc2nc(-c3ccccc3)oc(=O)c12
attribute-measured: normalized growth
readout-value: 0.915
//
compound: Cc1ccc(Cl)cc1NC(=S)NCCO
attribute-measured: normalized growth
readout-value: 1
//
compound: CN1CCc2cccc3c2C1Cc1ccc(O)c(O)c1-3 (stereo not drawn)
attribute-measured: normalized growth
readout-value: 0.311
//
compound: CCOC(=O)C1=CC2(CC)CCCN3CCc4c(n1c1ccccc41)C32 (stereo not drawn)
attribute-measured: normalized growth
readout-value: 0.997
//
compound: Nc1ccc(S(=O)(=O)Nc2nccs2)cc1
attribute-measured: normalized growth
readout-value: 1.01
//
compound: CCC(CO)NC(=O)C1C=C2c3cccc4c3c(cn4C)CC2N(C)C1 (stereo not drawn)
attribute-measured: normalized growth
readout-value: 1
//
compound: O=C(CCCCCCCCC(=O)c1ccccc1)c1ccccc1
attribute-measured: normalized growth
readout-value: 1
//
compound: COc1ccc2c(c1O)-c1c(OC)c(OC)cc3c1[C@H](C2)N(C)CC3
attribute-measured: normalized growth
readout-value: 1.01
//
compound: CC[C@]12CCCN3CCc4c(n(c5ccccc45)C(=O)C1)[C@@H]32
attribute-measured: normalized growth
readout-value: 0.991
//
compound: COc1ccc2c(c1O)-c1cccc3c1[C@@H](C2)N(C)CC3
attribute-measured: normalized growth
readout-value: 1.01

---

Assay: chemical genetic growth profiling, strain panel (AID 1159580)
Details: S. cerevisiae deletion strains, growth OD, locus YKL085W, strain MDH1, hits give low values
In all, about 5,500 compounds went through this assay and about 2,000 (36%) were called active. Not shown: some 18% with an inconclusive outcome. This is one part of the list.
In plain terms, low normalized growth, meaning strictly below 1, gives rule met, and everything else gives rule not met.

molecule: O=C(O)c1cc(=O)c2c(OCC(O)COc3cccc4oc(C(=O)O)cc(=O)c34)cccc2o1
group: rule not met
--
molecule: CC(=O)O[C@H]1CC[C@@]2(C)C(=CCC3C2CC[C@]2(C)C(=O)CCC32)C1 (stereo not given in full)
group: rule met
--
molecule: COc1cc(C)c2c(c1C=O)Oc1c(c(C)c(O)c3c1C(O)OC3=O)OC2=O (stereo not given)
group: rule met

---

Assay: chemical genetic growth profiling, strain panel (AID 1159580)
Settings: S. cerevisiae deletion strains, growth OD, locus YNL209W, strain ssb2, hits give low values
About 2,000 (36%) of roughly 5,500 compounds were called active. About 18% were inconclusive and are not listed. Some of the results follow.
In plain terms, low normalized growth, meaning strictly below 1, gives condition met, and everything else gives condition not met.

compound: CCOC(=O)C1=C[C@]2(CC)CCCN3CCc4c(n1c1ccccc41)[C@@H]32
group: condition not met
--
compound: CC(COc1ccccc1)N(CCCl)Cc1ccccc1 (stereo unspecified)
group: condition met
--
compound: C[C@@H]1C[C@@H]([C@H](O)CC2CC(=O)NC(=O)C2)C(=O)[C@@H](C)C1
group: condition met

---

Experiment: chemical genetic growth profiling, strain panel (AID 1159580);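 further: tested at 20 µM; growth read once vehicle control cultures reached saturation at 30 °C; 1 = growth at the plate median or of vehicle wells; lower values mean less growth of the strain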
Details: S. cerevisiae deletion strains, growth OD, locus YJL164C, strain tpk1, hits give low values
About 2,000 (36%) of roughly 5,500 compounds were called active. Another 18% or so got no clear call; they are omitted. The list shows a part of the results.

compound: CO[C@@H]1[C@@H](O[C@@H]2O[C@H](C)[C@@H](O[C@H]3C[C@@](C)(O)[C@H](O)[C@H](C)O3)[C@H](N(C)C)[C@H]2O)[C@@H](CC=O)C[C@@H](C)[C@@H](O[C@H]2CC[C@H](N(C)C)[C@@H](C)O2)/C=C/C=C/C[C@H](C)OC(=O)C[C@H]1O
normalized growth: 1
--
compound: COc1cc2c(cc1O)CC1c3c(cc(O)c(OC)c3-2)CCN1C (stereo not given)
normalized growth: 1.01
--
compound: O=C(O)c1cc(=O)c(O)c2c(O)c(O)c(O)cc2c1
normalized growth: 0.666
--
compound: COc1ccc2c(c1O)-c1c(OC)c(OC)cc3c1[C@H](C2)N(C)CC3
normalized growth: 0.972
--
compound: CC1(C)O[C@@H]2[C@@H](CO[C@@]3(COS(N)(=O)=O)OC(C)(C)O[C@@H]23)O1
normalized growth: 0.988
--
compound: CC1(C)O[C@@H]2CC3C4CCC5=CC(=O)C=C[C@]5(C)C4[C@@H](O)C[C@]3(C)[C@]2(C(=O)CO)O1 (stereo not given in full)
normalized growth: 1.01
--
compound: CC1(C)C2CC(=O)O[C@@]3(C)C4=CC(=O)O[C@@H](c5ccoc5)[C@]4(C)CCC3[C@@]2(C)C=C[C@H]1O (stereo not given in full)
normalized growth: 1.01
--
compound: O=C(O)c1cc(=O)c(O)c2c(O)c(O)ccc2c1
normalized growth: 0.985
--
compound: O=C(O)c1cc(O)c(O)c(O)c1
normalized growth: 1.01
--
compound: COc1ccccc1OCC(O)CN1CCN(CC(=O)Nc2c(C)cccc2C)CC1 (stereo not given)
normalized growth: 0.979

---

Entries and their normalized growth values follow.
Assay: chemical genetic growth profiling, strain panel (AID 1159580);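 further: tested at 20 µM; growth read once vehicle control cultures reached saturation at 30 °C; 1 = growth at the plate median or of vehicle wells; lower values mean less growth of the strain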
Settings: S. cerevisiae deletion strains, growth OD, locus YOR265W, strain rbl2, hits give low values
About 2,000 (36%) of roughly 5,500 compounds were called active. About 18% were inconclusive and are not listed. The list shows a part of the results.
attribute-measured: normalized growth

compound: CC1(C)O[C@@H]2CC3C4CCC5=CC(=O)C=C[C@]5(C)C4[C@@H](O)C[C@]3(C)[C@]2(C(=O)CO)O1 (stereo partly specified)
readout-value: 1.01
--
compound: C#C[C@]1(O)CCC2C3CCc4cc(O)ccc4C3CC[C@@]21C (stereo partly specified)
readout-value: 1.03
--
compound: COc1cc2c(cc1O)CC1c3c(cc(O)c(OC)c3-2)CCN1C (stereo unspecified)
readout-value: 1
--
compound: CN1CCc2cccc3c2C1Cc1ccc(O)c(O)c1-3 (stereo unspecified)
readout-value: 0.91
--
compound: COc1ccc(-c2cc(C(F)F)nn2-c2ccc(S(N)(=O)=O)cc2)cc1F
readout-value: 1.01
--
compound: O=C(O)c1cc(=O)c2c(OCC(O)COc3cccc4oc(C(=O)O)cc(=O)c34)cccc2o1
readout-value: 0.984

---

Entries and their normalized growth values follow.
Assay: chemical genetic growth profiling, strain panel (AID 1159580);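 further: tested at 20 µM; growth read once vehicle control cultures reached saturation at 30 °C; 1 = growth at the plate median or of vehicle wells; lower values mean less growth of the strain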
Conditions: S. cerevisiae deletion strains, growth OD, locus YEL037C, strain rad23, hits give low values
Screen size: about 5,500 compounds; about 2,000 (36%) were called active. Inconclusive results (about 18%) are left out. The list shows a part of the results.
attribute-measured: normalized growth

compound: C#C[C@]1(O)CCC2C3CCc4cc(OC)ccc4C3CC[C@@]21C (some centres undefined)
attribute-measured: normalized growth
readout-value: 0.968

compound: CCn1cc(C(=O)O)c(=O)c2cc3c(cc21)OCO3
attribute-measured: normalized growth
readout-value: 0.975

compound: CCn1cc(C(=O)O)c(=O)c2cnc(N3CCCC3)nc21
attribute-measured: normalized growth
readout-value: 0.999

compound: CC12CCC3C(CC=C4CC(O)CCC43C)C1CCC2=O (centres undefined)
attribute-measured: normalized growth
readout-value: 1

compound: C=CC1=C(C)/C(=C/c2[nH]c(Cc3[nH]c(/C=C4\NC(=O)C(C)=C4C=C)c(C)c3CCC(=O)O)c(CCC(=O)O)c2C)NC1=O
attribute-measured: normalized growth
readout-value: 0.984

compound: NCCCCN=C(N)N
attribute-measured: normalized growth
readout-value: 1.02

compound: O=C1O[C@@H](CO)[C@H](O)[C@@H](O)[C@@H]1O
attribute-measured: normalized growth
readout-value: 1.01

compound: O=C1CN(/N=C\c2ccc([N+](=O)[O-])o2)C(=O)N1
attribute-measured: normalized growth
readout-value: 0.963

compound: O=C(O)CCCCC1SCC2NC(=O)NC21 (centres undefined)
attribute-measured: normalized growth
readout-value: 0.992

compound: CCN(CC)CCOC(=O)C(Cc1cccc2ccccc12)CC1CCCO1 (centres undefined)
attribute-measured: normalized growth
readout-value: 1.01

compound: COc1cc2c(cc1O)CC1c3c(cc(O)c(OC)c3-2)CCN1C (centres undefined)
attribute-measured: normalized growth
readout-value: 1.01

compound: CC(=O)O[C@H]1CC[C@@]2(C)C(=CCC3C2CC[C@@]2(C)C3CC[C@@H]2C(C)CCCC(C)C)C1 (some centres undefined)
attribute-measured: normalized growth
readout-value: 0.996

compound: CN1CCc2cccc3c2C1Cc1ccc(O)c(O)c1-3 (centres undefined)
attribute-measured: normalized growth
readout-value: 0.962

compound: CCn1cc(C(=O)O)c(=O)c2cnc(N3CCNCC3)nc21
attribute-measured: normalized growth
readout-value: 1.01

compound: NC(=O)N/N=C\c1ccc([N+](=O)[O-])o1
attribute-measured: normalized growth
readout-value: 1

compound: CC(=O)O[C@H]1CC[C@@]2(C)C(=CCC3C2CC[C@]2(C)C(=O)CCC32)C1 (some centres undefined)
attribute-measured: normalized growth
readout-value: 0.994

compound: COc1cc(C)c2c(c1C=O)Oc1c(c(C)c(O)c3c1C(O)OC3=O)OC2=O (centres undefined)
attribute-measured: normalized growth
readout-value: 1.02

compound: O=C1OCCN1/N=C\c1ccc([N+](=O)[O-])o1
attribute-measured: normalized growth
readout-value: 0.986

compound: C[C@]12CCC3c4ccc(OS(=O)(=O)O)cc4CCC3C1CCC2=O (some centres undefined)
attribute-measured: normalized growth
readout-value: 1.01
